METHOD_NOTES: NCI Yeast Anticancer Drug Screen. Data for the bub3 strain (AID 167)
RECORDED_CONDITIONS: S. cerevisiae bub3 mutant strain, at 11.0 µM, stronger effect = higher value
Experimental: Growth inhibition of yeast strains with defined genetic alterations is measured as a screen for potential anti-cancer activity. Selected strains with alterations in DNA damage repair or cell cycle control were exposed to compounds and growth inhibition was measured relative to vehicle treated controls. The strain used in this assay is bub3
The panel holds about 79,000 compounds, 15% with a hit somewhere; the sample as a whole holds those more often.
Listed here are molecules together with their documented growth inhibition.
The answer is to be given in %; state only the numeric part.

Solved entries (count: 5):
O=C1OC(=O)C2CCCC3CCCC1C32 (configuration not stated) = 93
Cc1nc(-c2ccccc2)c(-c2ccccc2)s1 = 22
CCCCCCCCCCNC(=O)OCC = 9
COc1ccccc1C(=O)OCC1CCCN2CCCCC12 (configuration not stated) = 31
CCN(CC)CCC(=O)c1ccc(Oc2ccc(F)cc2)cc1 = 58

For CCC(C)COC(=O)c1ccc(N=Cc2ccc(C=Nc3ccc(C(=O)OCC(C)CC)cc3)cc2)cc1 (configuration not stated) , what is its reported growth inhibition? 6

For CCCCN1C(=O)N(c2ccc(OCC)cc2)C2N(CCCC)C1C(C)(C)C2(C)C (configuration not stated) , what is its reported growth inhibition? -12

For O=C(N=Nc1ccccc1Cl)NNc1ccccc1Cl , what is its reported growth inhibition? 13

For Cc1nn(-c2cc(Cl)ccc2[N+](=O)[O-])c(C)c1Cl , what is its reported growth inhibition? 20

For Cc1ccc(S(=O)(=O)Oc2cc(Cl)c(Cl)cc2Cl)cc1 , what is its reported growth inhibition? 3

For O=C(N=Nc1cc(Cl)ccc1Cl)NNc1cc(Cl)ccc1Cl , what is its reported growth inhibition? 3

For CCCCCCCCCCC1CCC(=O)O1 (configuration not stated) , what is its reported growth inhibition? 0

For CC[C@@]1(O)C(=O)OCc2c1cc1n(c2=O)Cc2cc3c(N)cccc3nc2-1 , what is its reported growth inhibition? -26

For COCCOC(=O)CCn1cc(F)c(=O)[nH]c1=O , what is its reported growth inhibition? 7

For O=S(=O)(CCCl)c1ccccc1Cl , what is its reported growth inhibition? 38

For COC1C=COC2(C)Oc3c(C)c(O)c4c(c3C2=O)/C(=N/C2CCC(O)OC2C)C=C(NC(=O)/C(C)=C\C(=O)C2CC2C(O)C(C)C(O)C(C)C(OC(C)=O)C1C)C4=O (configuration not stated) , what is its reported growth inhibition? -2

For Cc1ccc2ccc3cccc4ccc1c2c34 , what is its reported growth inhibition? 2

For C[C@@H]1C[C@H]2[C@@H]3CCC4=CC(=O)C=C[C@]4(C)[C@@]3(Cl)[C@@H](Cl)C[C@]2(C)[C@@]1(O)C(=O)COP(=O)(O)O , what is its reported growth inhibition? 2

For CC[C@@]1(O)C(=O)OCc2c1cc1n(c2=O)Cc2cc3c(CN(C)C)c(O)ccc3nc2-1 , what is its reported growth inhibition? -3

For Cc1ccc(S(=O)(=O)NNC(=S)Nc2cccc3ccccc23)cc1 , what is its reported growth inhibition? 10

For OC(c1ccc(F)cc1)(c1ccc(F)cc1)C1CC1 , what is its reported growth inhibition? -13

For O=C(NCCCCCCCN1CCCCCCC1)C(C1CCCCC1)C1CCCCC1 , what is its reported growth inhibition? 95

====

METHOD_NOTES: NCI Yeast Anticancer Drug Screen. Data for the mec2-1 strain (AID 157)
RECORDED_CONDITIONS: S. cerevisiae mec2-1 strain, at 3.7 µM, stronger effect = higher value
Protocol: Growth inhibition of yeast strains with defined genetic alterations is measured as a screen for potential anti-cancer activity. Selected strains with alterations in DNA damage repair or cell cycle control were exposed to compounds and growth inhibition was measured relative to vehicle treated controls. The strain used in this assay is mec2-1
Compounds without any hit were thinned out: in the full panel of roughly 79,000, 15% have a hit.
Listed here are compounds together with their documented growth inhibition.
The answer is to be given in %; state only the numeric part.

O=C(NCCCCCCCN1CCCCCCC1)C(C1CCCCC1)C1CCCCC1 = 39
CNC(=O)OCc1c(COC(=O)NC)c(-c2ccc(-c3ccccc3)cc2)n(C)c1C = -18

For CSC1=NNC(SC)=NN1 , what is its reported growth inhibition? -22

For CC1=NN(c2cccc(Cl)c2)C(=O)C1 , what is its reported growth inhibition? -27

For C[C@@H]1C[C@H]2[C@@H]3CCC4=CC(=O)C=C[C@]4(C)[C@@]3(Cl)[C@@H](Cl)C[C@]2(C)[C@@]1(O)C(=O)COP(=O)(O)O , what is its reported growth inhibition? -3

For CN1CCc2ccccc2C1Cc1ccccc1NC(=O)c1sc2ccccc2c1Cl (stereo not drawn) , what is its reported growth inhibition? -29

For CCC#CCCCOC(=O)c1cc([N+](=O)[O-])cc([N+](=O)[O-])c1 , what is its reported growth inhibition? -2

For CCCS(=O)(=O)Nc1ccc(Nc2c3ccccc3nc3ccccc23)c(OC)c1 , what is its reported growth inhibition? -88

For N#CN=Nc1cc(Cl)c(N=NC#N)cc1Cl , what is its reported growth inhibition? -17

For C=C1CC(Cn2cc(Br)c(=O)[nH]c2=O)(c2ccc(-c3ccccc3)cc2)OC1=O (stereo not drawn) , what is its reported growth inhibition? 15

For O=C(O)CNc1ccc(Cl)c(Cl)c1 , what is its reported growth inhibition? -1

For O=[N+]([O-])/C=C/c1ccc2ccccc2c1 , what is its reported growth inhibition? 89

For Nc1ncncc1C(C1=C(O)COC1=O)C1=C(O)COC1=O , what is its reported growth inhibition? 7

For S=C(S)NN1CCOCC1 , what is its reported growth inhibition? 60

For Cc1ccc2ccc(O)cc2c1 , what is its reported growth inhibition? -33

For COc1cc2c(c(OC)c1OC)-c1c(cc3c(c1OC)OCO3)CC(C)C(C)(O)C2OC(=O)c1ccccc1 (stereo not drawn) , what is its reported growth inhibition? 12

For c1ccc2c(c1)sc1nc3ccncc3nc12 , what is its reported growth inhibition? 1

For O=Cc1cccc2ccc3ccccc3c12 , what is its reported growth inhibition? -1

For COc1ccccc1/C=C1\Sc2scc(-c3cccc([N+](=O)[O-])c3)[n+]2C1=O , what is its reported growth inhibition? 98

====

Listed here are molecules together with their documented growth inhibition.
METHOD_NOTES: NCI Yeast Anticancer Drug Screen. Data for the rad14 strain (AID 159);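 note: 0% = growth of vehicle-treated control cultures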
RECORDED_CONDITIONS: S. cerevisiae rad14 strain growth inhibition; at 100.0 µM; stronger effect = higher value
Description: Growth inhibition of yeast strains with defined genetic alterations is measured as a screen for potential anti-cancer activity. Selected strains with alterations in DNA damage repair or cell cycle control were exposed to compounds and growth inhibition was measured relative to vehicle treated controls. The strain used in this assay is rad14
Compounds without any hit were thinned out: in the full panel of roughly 79,000, 15% have a hit.
The answer is to be given in %; state only the numeric part.

CN(C)CCn1c2c3ccccc3ccc2c2oc(=O)c3ccccc3c21 = 91

For Cc1cc(I)ccc1N , what is its reported growth inhibition? 92

For COC(=O)C1=C(C)NC(C)=C(C(=O)OCCCN2CCC(c3ccccc3)(c3ccccc3)CC2)C1c1cccc([N+](=O)[O-])c1 (stereo not drawn) , what is its reported growth inhibition? 89

====

METHOD_NOTES: NCI Yeast Anticancer Drug Screen. Data for the rad50EPP+ strain (AID 151);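 note: 0% = growth of vehicle-treated control cultures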
RECORDED_CONDITIONS: S. cerevisiae rad50 mutant strain, at 100.0 µM
Compounds without any hit were thinned out: in the full panel of roughly 79,000, 15% have a hit. The source made the active and inactive calls. Rule as the data show it: active = growth inhibition above about 70%; inactive = the rest.
Result category, one only: active, inactive

Check out these entries, answers already filled in.
Clc1ccccc1C1OC1c1ccccc1Cl (centres undefined) = active
CCCCCCCCCC/C=C\C(=O)O = active
COc1ccccc1N=NC(C(=O)c1ccccc1)C(=O)c1ccccc1 = inactive
Oc1cccc2c(Cl)ccnc12 = active
Cc1nc(-[n+]2nc(-c3ccncc3)nn2-c2ccccc2)sc1C = inactive

Write down the call the test reported for this compound. Item: COC1=CC(=O)C2C(C1=O)C(c1ccc(Cl)cc1)[C@@H]2C (some centres undefined) active

Write down the call the test reported for this compound. Item: O=C(O)C1OC1(c1cccc(Cl)c1)c1ccccc1Cl (centres undefined) inactive

Write down the call the test reported for this compound. Item: CC(=O)N/N=C/C(C)(C)C(C)(C)/C=N/NC(C)=O active

Write down the call the test reported for this compound. Item: c1ccc2c(c1)sc1cc3ccncc3cc12 active

Write down the call the test reported for this compound. Item: CC1=C(C)Cc2c(O)ccc(O)c2C1 inactive

Write down the call the test reported for this compound. Item: Cc1cc2c(cc1C(=O)CCC(=O)O)CC1(C2)Cc2cc(C)c(C(=O)CCC(=O)O)cc2C1 inactive

Write down the call the test reported for this compound. Item: CSC(=S)N/N=C(\C)c1cccc(C)n1 active

Write down the call the test reported for this compound. Item: COCCOC(=O)CCn1cc(F)c(=O)[nH]c1=O active

Write down the call the test reported for this compound. Item: COC1=CC(=O)C(C2(OC(C)C)OC(=O)C(Cl)=C2Cl)=CC1=O (centres undefined) active

Write down the call the test reported for this compound. Item: CC(=O)OCC(=O)C1(O)CCC2C3CCC4CCCCC4(C)C3CCC21C (centres undefined) inactive

Write down the call the test reported for this compound. Item: COc1cc(C2SCC(=O)N2c2ccc(-c3ccc(-n4c(-c5ccccc5)nc5ccccc5c4=O)cc3)cc2)cc(OC)c1OC (centres undefined) inactive

Write down the call the test reported for this compound. Item: COc1ccc2ccc3ccccc3c2c1C=O inactive

Write down the call the test reported for this compound. Item: CCCCCCCCCCC1CCC(=O)O1 (centres undefined) inactive

Write down the call the test reported for this compound. Item: O=C(Nc1ccc(Cl)cc1)OCC#CCCl active

Write down the call the test reported for this compound. Item: C(=C\c1ccccc1)/COc1ccccc1C(N1CCOCC1)n1nc2ccccc2n1 (centres undefined) active

Write down the call the test reported for this compound. Item: CCS(=O)(=O)c1ccc(/C=C/C=N/NC(=S)NCC(C)C)cc1 inactive

Write down the call the test reported for this compound. Item: O=Nc1c(NO)ccc2nn(-c3ccccc3)nc12 inactive
